- System: CYP3A4
- method summary: CYP3A4 enzyme induction assay in cryopreserved HepaRG cells (midazolam probe, LC/MS); for Assigned classification CYP3A4: key: 1=Positive=inducer; 0=Negative=non-inducer
- Format: in vitro ADME, human
- test parameters: HepaRG; Lab 2; batch 35
Where a name gives a salt, the structure may show the parent alone.
readout name: Assigned classification CYP3A4
Give the figure by itself; no unit, no explanation.

Lookup: What value of Assigned classification CYP3A4 has been recorded for this entry: COCCc1ccc(OCC(O)CNC(C)C)cc1 (stereo not drawn) [Metoprolol]
Found: 0

Lookup: Check COc1ccccc1Oc1c(NS(=O)(=O)c2ccc(C(C)(C)C)cc2)nc(-c2ncccn2)nc1OCCO [Bosentan hydrate] too.
Found: 1

Lookup: Next record, please: NC(=O)N1c2ccccc2C=Cc2ccccc21 [Carbamazepine]
Found: 1

Lookup: Quick one: CC(C)NCC(O)c1ccc(NS(C)(=O)=O)cc1 (stereo not drawn) [Sotalol hydrochloride]
Found: 0

Lookup: Do the same for COc1ccc2[nH]c([S+]([O-])Cc3ncc(C)c(OC)c3C)nc2c1 (stereo not drawn) [Omeprazole] please
Found: 0

Lookup: Now consider O=C1NC(=O)C(c2ccccc2)(c2ccccc2)N1 [Phenytoin sodium] and answer again.
Found: 1

====

- Test system: CYP1A2
- method summary: CYP1A2 enzyme induction assay in cryopreserved HepaRG cells (phenacetin probe, LC/MS); note: key: 1=Positive=inducer; 0=Negative=non-inducer
- Type: in vitro ADME, human
- test parameters: HepaRG; Lab 2; batch 35
Exercise: state measured Assigned classification CYP1A2 for each of the compounds provided.
No unit in the answer, please; the number alone is enough.

Lookup: If you can, please state the reported Assigned classification CYP1A2 value of O=C1NC(=O)C(c2ccccc2)(c2ccccc2)N1 [Phenytoin sodium] .
Found: 1

Lookup: Check COc1ccccc1Oc1c(NS(=O)(=O)c2ccc(C(C)(C)C)cc2)nc(-c2ncccn2)nc1OCCO [Bosentan hydrate] too.
Found: 1

Lookup: Let us now turn to COCCc1ccc(OCC(O)CNC(C)C)cc1 (stereo not drawn) [Metoprolol]
Found: 1

====

- System: CYP2B6
- method summary: CYP2B6 enzyme induction assay in cryopreserved HepaRG cells (bupropion probe, LC/MS); note: key: 1=Positive=inducer; 0=Negative=non-inducer
- Type: in vitro ADME, human
- test parameters: HepaRG; Lab 1; batch 20
Where a name gives a salt, the structure may show the parent alone.
Task for the reader: assign each of the following compounds its reported Assigned classification CYP2B6.
Keep it simple and answer with nothing but the number.

Lookup: Request body: readout Assigned classification CYP2B6, system CYP2B6, query COCCc1ccc(OCC(O)CNC(C)C)cc1 (stereo not shown) . Return the value.
Found: 0

Lookup: Lookup O=C1NC(=O)C(c2ccccc2)(c2ccccc2)N1 [Phenytoin sodium]
Found: 1

Lookup: Also NC(=O)N1c2ccccc2C=Cc2ccccc21 [Carbamazepine] , if possible.
Found: 1

Lookup: How about this compound: COc1ccccc1Oc1c(NS(=O)(=O)c2ccc(C(C)(C)C)cc2)nc(-c2ncccn2)nc1OCCO [Bosentan hydrate]
Found: 1

Lookup: How about CC(C)NCC(O)c1ccc(NS(C)(=O)=O)cc1 (stereo not shown) [Sotalol hydrochloride] ?
Found: 0

Lookup: And for COc1ccc2[nH]c([S+]([O-])Cc3ncc(C)c(OC)c3C)nc2c1 (stereo not shown) ?
Found: 0

Lookup: And the next one, "CO[C@H]1/C=C/O[C@@]2(C)Oc3c(C)c(O)c4c(O)c(c(/C=N/N5CCN(C)CC5)c(O)c4c3C2=O)NC(=O)/C(C)=C\C=C\[C@H](C)[C@H](O)[C@@H](C)[C@@H](O)[C@@H](C)[C@H](OC(C)=O)[C@@H]1C" ?
Found: 0

====

- method summary: Solubility by visual inspection (DMSO stock solution and assay medium)
- Type: physicochemical
- test parameters: Lab 1, visual observation, assay medium
readout name: HepaRG medium stability (µg/mL)
Report only the number, with the unit µg/mL understood.

Lookup: Which HepaRG medium stability is reported for this compound? "CO[C@H]1/C=C/O[C@@]2(C)Oc3c(C)c(O)c4c(c3C2=O)C2=NC3(CCN(CC(C)C)CC3)NC2=C(NC(=O)/C(C)=C\C=C\[C@H](C)[C@H](O)[C@@H](C)[C@@H](O)[C@@H](C)[C@H](OC(C)=O)[C@@H]1C)C4=O"
Found: 40

Lookup: Now give it for O=C1NC(=O)C(c2ccccc2)(c2ccccc2)N1 [Phenytoin sodium] too.
Found: 40

Lookup: // repeat for CC1(C)S[C@@H]2[C@H](NC(=O)Cc3ccccc3)C(=O)N2[C@H]1C(=O)O [Penicillin G sodium] and report
Found: 40

Lookup: Also "OCc1c[nH]c2ccccc12" , if possible.
Found: 5

Lookup: // next record "O=C1Nc2ccc(Cl)cc2[C@@](C#CC2CC2)(C(F)(F)F)O1"
Found: 20

====

- Tested on: CYP2B6
- method summary: CYP2B6 enzyme induction assay in cryopreserved primary human hepatocytes (PHH);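 note: code 1 means positive inducer and 0 means non-inducer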
- Assay type: in vitro ADME
- test parameters: PHH; Lab 3; batch 4 0 8
Where a name gives a salt, the structure may show the parent alone.
readout name: Assigned classification CYP2B6
Please give only the number in your answer, with no unit.

Lookup: Param readout= Assigned classification CYP2B6; system= CYP2B6; entry= O=C1NC(=O)C(c2ccccc2)(c2ccccc2)N1 [Phenytoin sodium] ; returns value.
Found: 1

Lookup: And for "CO[C@H]1/C=C/O[C@@]2(C)Oc3c(C)c(O)c4c(O)c(c(/C=N/N5CCN(C)CC5)c(O)c4c3C2=O)NC(=O)/C(C)=C\C=C\[C@H](C)[C@H](O)[C@@H](C)[C@@H](O)[C@@H](C)[C@H](OC(C)=O)[C@@H]1C" ?
Found: 1

Lookup: Then this compound: COc1ccc2[nH]c([S+]([O-])Cc3ncc(C)c(OC)c3C)nc2c1 (stereo not shown)
Found: 1

Lookup: Thanks! And CC(C)NCC(O)c1ccc(NS(C)(=O)=O)cc1 (stereo not shown) [Sotalol hydrochloride] ?
Found: 0

====

Kindly supply the reported Assigned classification CYP3A4 values for the records listed here.
- Test system: CYP3A4
- method summary: CYP3A4 enzyme induction assay in cryopreserved HepaRG cells (midazolam probe, LC/MS); for Assigned classification CYP3A4: key: 1=Positive=inducer; 0=Negative=non-inducer
- Type: in vitro ADME, human
- test parameters: HepaRG; Lab 3; batch 20
Structures can show the parent of a compound that is named as a salt.
// print number alone

Lookup: If you can, please state the reported Assigned classification CYP3A4 value of COc1ccccc1Oc1c(NS(=O)(=O)c2ccc(C(C)(C)C)cc2)nc(-c2ncccn2)nc1OCCO [Bosentan hydrate] .
Found: 1

Lookup: Another compound to check: NC(=O)N1c2ccccc2C=Cc2ccccc21 [Carbamazepine]
Found: 1

Lookup: How about COCCc1ccc(OCC(O)CNC(C)C)cc1 (stereo not drawn) ?
Found: 0

Lookup: Also CC(C)NCC(O)c1ccc(NS(C)(=O)=O)cc1 (stereo not drawn) [Sotalol hydrochloride] ?
Found: 0

Lookup: Another: COc1ccc2[nH]c([S+]([O-])Cc3ncc(C)c(OC)c3C)nc2c1 (stereo not drawn)
Found: 0

Lookup: What do we get for O=C1NC(=O)C(c2ccccc2)(c2ccccc2)N1 [Phenytoin sodium] ?
Found: 1

====

- Tested on: CYP1A2
- method summary: CYP1A2 enzyme induction assay in cryopreserved primary human hepatocytes (PHH)
- Type: in vitro ADME
- test parameters: CYP1A2, PHH; positive in one donor in each of the three laboratories
readout name: Induction in vitro

O=C1Nc2ccc(Cl)cc2[C@@](C#CC2CC2)(C(F)(F)F)O1
No
CO[C@H]1/C=C/O[C@@]2(C)Oc3c(C)c(O)c4c(c3C2=O)C2=NC3(CCN(CC(C)C)CC3)NC2=C(NC(=O)/C(C)=C\C=C\[C@H](C)[C@H](O)[C@@H](C)[C@@H](O)[C@@H](C)[C@H](OC(C)=O)[C@@H]1C)C4=O
Yes
COc1ccccc1Oc1c(NS(=O)(=O)c2ccc(C(C)(C)C)cc2)nc(-c2ncccn2)nc1OCCO [Bosentan hydrate]
No
O=C1NC(=O)C(c2ccccc2)(c2ccccc2)N1 [Phenytoin sodium]
Yes

====

- System: CYP3A4
- method summary: CYP3A4 enzyme induction assay in cryopreserved HepaRG cells (midazolam probe, LC/MS)
- Assay type: in vitro ADME, human
- test parameters: CYP3A4, HepaRG cells
Counter-ions that a name gives are not always drawn.
readout name: Prediction in vivo inducer

COc1ccc2[nH]c([S+]([O-])Cc3ncc(C)c(OC)c3C)nc2c1 (stereo not drawn)
No
COc1ccccc1Oc1c(NS(=O)(=O)c2ccc(C(C)(C)C)cc2)nc(-c2ncccn2)nc1OCCO [Bosentan hydrate]
Yes
NC(=O)N1c2ccccc2C=Cc2ccccc21 [Carbamazepine]
Yes
COCCc1ccc(OCC(O)CNC(C)C)cc1 (stereo not drawn)
No
O=C1NC(=O)C(c2ccccc2)(c2ccccc2)N1 [Phenytoin sodium]
Yes

# input for lookup
Lookup: Please look up its Prediction in vivo inducer: CC(C)NCC(O)c1ccc(NS(C)(=O)=O)cc1 (stereo not drawn) [Sotalol hydrochloride]
Found: No

====

- System: CYP2B6
- method summary: CYP2B6 enzyme induction assay in cryopreserved primary human hepatocytes (PHH);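 note: code 1 means positive inducer and 0 means non-inducer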
- Format: in vitro ADME
- test parameters: PHH; Lab 2; batch 8 0 8
readout name: Assigned classification CYP2B6
Provide a numeric answer; units are not to be included.

Lookup: Record request: Assigned classification CYP2B6 value, item COc1ccccc1Oc1c(NS(=O)(=O)c2ccc(C(C)(C)C)cc2)nc(-c2ncccn2)nc1OCCO [Bosentan hydrate]
Found: 1

Lookup: // repeat for NC(=O)N1c2ccccc2C=Cc2ccccc21 [Carbamazepine] and report
Found: 0

Lookup: How about this compound: "O=C1Nc2ccc(Cl)cc2[C@@](C#CC2CC2)(C(F)(F)F)O1"
Found: 0
